Measured TC, listed per entry.
organism: Mus musculus; test: Relative average tumor wet weight in treated compared to untreated mice at 4 mg dose; format: functional
Give the quantity in %, number only.

Previously resolved entries follow.
Oc1cccc([C@H]([C@H](c2cccc(O)c2)C(F)(F)F)C(F)(F)F)c1 | 23.9
Oc1ccc(/C(=C(/c2ccc(O)cc2)C(F)(F)F)C(F)(F)F)cc1 | 5.5
Oc1ccc([C@H]([C@H](c2ccc(O)cc2)C(F)(F)F)C(F)(F)F)cc1 | 7.2

Query: Report TC for Oc1cccc(/C(=C(/c2cccc(O)c2)C(F)(F)F)C(F)(F)F)c1
Response: 25.7

----------
biological target: Estrogen receptor (Mus musculus) (UniProt O08537+P19785); test: Uterotrophic effect in mice at 500 ug dose; assay type: functional, tissue-based; design: unit not given here; conditions: Uterus
Sequence (O08537 whole entry, looked up): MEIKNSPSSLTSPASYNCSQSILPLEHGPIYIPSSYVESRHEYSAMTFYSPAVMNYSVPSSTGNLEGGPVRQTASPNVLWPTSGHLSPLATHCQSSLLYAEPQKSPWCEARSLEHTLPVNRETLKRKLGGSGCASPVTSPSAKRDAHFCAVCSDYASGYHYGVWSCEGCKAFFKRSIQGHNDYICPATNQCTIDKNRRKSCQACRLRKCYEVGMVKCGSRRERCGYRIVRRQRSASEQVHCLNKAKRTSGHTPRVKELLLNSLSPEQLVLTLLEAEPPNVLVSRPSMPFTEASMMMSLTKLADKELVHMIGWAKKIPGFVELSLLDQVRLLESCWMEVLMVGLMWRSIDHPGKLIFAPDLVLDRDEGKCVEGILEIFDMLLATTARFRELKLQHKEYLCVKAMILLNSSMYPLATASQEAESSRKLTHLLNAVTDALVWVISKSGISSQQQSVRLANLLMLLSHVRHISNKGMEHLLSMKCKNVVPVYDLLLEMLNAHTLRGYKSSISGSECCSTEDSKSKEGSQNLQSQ
Sequence (P19785 whole entry, looked up): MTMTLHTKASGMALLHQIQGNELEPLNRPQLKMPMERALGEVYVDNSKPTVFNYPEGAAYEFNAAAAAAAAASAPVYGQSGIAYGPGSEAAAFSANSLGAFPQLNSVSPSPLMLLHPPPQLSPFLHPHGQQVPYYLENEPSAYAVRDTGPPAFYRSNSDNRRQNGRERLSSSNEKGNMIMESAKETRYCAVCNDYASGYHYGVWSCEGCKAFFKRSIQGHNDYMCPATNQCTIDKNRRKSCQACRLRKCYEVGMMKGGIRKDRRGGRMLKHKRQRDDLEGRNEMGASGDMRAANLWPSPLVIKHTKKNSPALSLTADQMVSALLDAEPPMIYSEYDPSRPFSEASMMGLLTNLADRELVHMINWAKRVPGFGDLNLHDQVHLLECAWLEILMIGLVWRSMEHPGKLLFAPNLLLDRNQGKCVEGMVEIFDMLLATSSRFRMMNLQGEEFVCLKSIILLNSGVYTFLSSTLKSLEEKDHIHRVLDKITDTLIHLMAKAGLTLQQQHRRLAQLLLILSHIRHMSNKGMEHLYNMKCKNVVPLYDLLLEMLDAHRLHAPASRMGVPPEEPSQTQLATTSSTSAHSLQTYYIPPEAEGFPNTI
Each record is given yes (1) if its reported Effect is strictly below 50. Records at or above 50 are given no (0).

Solved cases (3 shown):
C[C@H](c1ccc(O)cc1)[C@@H](C)c1ccc(O)cc1 | no (0)
C/C(=C(/C)c1cccc(O)c1)c1cccc(O)c1 | yes (1)
Oc1cccc(/C(=C(/c2cccc(O)c2)C(F)(F)F)C(F)(F)F)c1 | no (0)

Query: Criterion: Effect strictly below 50. Is it met by C[C@H](c1cccc(O)c1)[C@@H](C)c1cccc(O)c1 ?
Response: yes (1)

----------
target: Estrogen receptor (Mus musculus) (UniProt O08537+P19785); assay: Uterotrophic effect in mice at 0.1 ug dose; format: functional, tissue-based; design: unit not given here; settings: Uterus
Please use rule met for Effect under 20 and rule not met for everything else, ties included.

Here are 4 molecules together with their reported answers.
C[C@H](c1ccc(O)cc1)[C@@H](C)c1ccc(O)cc1 | rule met
Oc1ccc([C@H]([C@H](c2ccc(O)cc2)C(F)(F)F)C(F)(F)F)cc1 | rule not met
Oc1cccc(/C(=C(/c2cccc(O)c2)C(F)(F)F)C(F)(F)F)c1 | rule met
Oc1cccc([C@H]([C@H](c2cccc(O)c2)C(F)(F)F)C(F)(F)F)c1 | rule met

Next item in the queue.
Query: Could you please tell me whether Effect recorded for Oc1ccc(/C(=C(/c2ccc(O)cc2)C(F)(F)F)C(F)(F)F)cc1 is less than 20?
Response: rule not met

----------
target: Estrogen receptor (Mus musculus) (UniProt O08537+P19785); experiment: Uterotrophic effect in mice at 25 ug dose; assay type: functional, tissue-based; design: unit not given here; conditions: Uterus
PROPERTY_NAME: Effect
No unit in the answer, please; the number alone is enough.

Would you please look over these solved cases?
Oc1cccc([C@H]([C@H](c2cccc(O)c2)C(F)(F)F)C(F)(F)F)c1 | 28.8
C/C(=C(/C)c1cccc(O)c1)c1cccc(O)c1 | 42.3
C[C@H](c1ccc(O)cc1)[C@@H](C)c1ccc(O)cc1 | 36
C/C(=C(/C)c1ccc(O)cc1)c1ccc(O)cc1 | 32

Continue with the compound presented below.
Query: Hello, please tell me recorded Effect for this one: Oc1cccc(/C(=C(/c2cccc(O)c2)C(F)(F)F)C(F)(F)F)c1
Response: 47.4

----------
Listing of recorded Effect by entry.
target: Estrogen receptor (Mus musculus) (UniProt O08537+P19785); assay: Uterotrophic effect in mice at 100 ug dose; format: functional, tissue-based; design: unit not given here; details: Uterus
Output: the number by itself.

Record excerpt, results attached:
Oc1cccc(/C(=C(/c2cccc(O)c2)C(F)(F)F)C(F)(F)F)c1 | 47.8
C/C(=C(/C)c1ccc(O)cc1)c1ccc(O)cc1 | 39.8
C/C(=C(/C)c1cccc(O)c1)c1cccc(O)c1 | 43.5

Now, please, on to the next molecule.
Query: Please look at this molecule and report its Effect: C[C@H](c1ccc(O)cc1)[C@@H](C)c1ccc(O)cc1
Response: 45.1

Hello, the source for this data is ChEMBL document CHEMBL1123408, in case you need it.
